Parameter GI50, tested on HCT-15, listed per item.

Observe how each entry below is paired with its result.
molecule | GI50
COc1ccc(C2=N/C(=C\c3ccccc3)C(=O)O2)cc1 | 52.1 µM
O=C1c2ccccc2-c2nc(-c3ccccc3)cc3c2c1nc1ccccc13 | 11.2 µM
O=C(O)c1cc2cc(OCc3ccccc3)ccc2[nH]1 | > 100 µM

stdin: What does the data say about its GI50? Entry: Clc1ccc(C2ON=C(c3ccccc3)N2C23CC4CC(CC(C4)C2)C3)cc1 (stereo unspecified)
stdout: > 10 µM

stdin: // same read-out, input: O=[N+]([O-])C(/C=C(\Cl)[N+](=O)[O-])=C(N1CCOCC1)N1CCOCC1
stdout: > 100 µM

stdin: // same read-out, input: CCCCN(CCCC)C(=O)C(=O)CC(=O)/C=C/c1ccccc1
stdout: > 100 µM

---

System: 786-0
Assay: NCI tumour cell line growth inhibition, 48 h
Active and inactive are the calls of the source. Rule as the data show it: active = GI50 up to about 1.1 µM and inactive = higher.
observation type: GI50

compound | assayed system | GI50
CC1=C(C(=O)Nc2ccc([N+](=O)[O-])cc2)C(c2cccc([N+](=O)[O-])c2)C(C(=O)Nc2ccc([N+](=O)[O-])cc2)=C(C)N1 | 786-0 | 48.2 µM (inactive)
O=C1Nc2ccccc2/C1=N/NC(=S)N1CCCC1 | 786-0 | 0.647 µM (active)
CC1(COS(=O)(=O)OCC2(C)COS(=O)(=O)OC2)COS(=O)(=O)OC1 | 786-0 | > 50.8 µM (inactive)

stdin: Record lookup: for 786-0, what GI50 belongs to CCCCNC(=O)Nc1c(C(N)=O)c2n(c1C(=O)OCC)CCCCC2 ?
stdout: > 100 µM (inactive)

stdin: // same read-out, input: Clc1ccc(C2ON=C(c3ccccc3)N2C23CC4CC(CC(C4)C2)C3)cc1 (stereo not given)
stdout: > 10 µM (inactive)

---

Here the recorded GI50 is given for each entry.
System: EKVX
Assay: NCI tumour cell line growth inhibition, 48 h
The source made the active and inactive calls. No stated cut-off is given here; in the data, active = GI50 up to about 1.1 µM and inactive = higher.

Observe how each entry below is paired with its result.
compound | GI50
CCCCCCCCCCCc1noc2c1C(=O)C(O)CC2 (stereo unspecified) | 33.5 µM (inactive)
CON1C(=O)C2(CCCCC2)C(=O)C12C=CC(C)CC2 (stereo unspecified) | 48.2 µM (inactive)
COc1ccccc1C(=O)Nc1ccc(Cl)c(C(=O)OC(C)C)c1 | 39.9 µM (inactive)
CCOC(=O)C(NC(=O)c1nc[nH]c1/N=N/N(C)C)C(C)C (stereo unspecified) | > 100 µM (inactive)
COC(=O)[C@]12CC3C=CC1N(C3)C(CBr)c1c2n(S(=O)(=O)c2ccccc2)c2ccccc12 (stereo partly specified) | 80 µM (inactive)

// moving on: another record for GI50
stdin: Record lookup: for EKVX, what GI50 belongs to CCOC(=O)C(C)(C)C(O)C(C)C (stereo unspecified) ?
stdout: > 100 µM (inactive)

---

Here the recorded GI50 is given for each entry.
Tested on: M14
Assay: NCI tumour cell line growth inhibition, 48 h
Activity calls are given as the source filed them. No stated cut-off is given here; in the data, active = GI50 up to about 1.1 µM and inactive = higher.

Observe how each entry below is paired with its result.
compound | observation type | result
COc1ccc2c([nH]c3c(O)c(-c4c(C)cc5c([nH]c6c(CC=C(C)C)c(OC)ccc65)c4O)c(C)cc32)c1CC=C(C)C | GI50 | > 100 µM (inactive)
CCOP(=O)(OCC)/C(C#N)=C/c1ccccn1 | GI50 | > 100 µM (inactive)
C/C(CC(=O)Nc1ccc(C)c(C)c1)=N\N(c1ccccc1)c1ccccc1 | GI50 | > 100 µM (inactive)
Cn1c(O)c(C2=Nc3ccccc3C2=O)c2ccccc21 | GI50 | > 100 µM (inactive)
Cc1ccc2c(c1)Nc1ccccc1P2(=O)O | GI50 | > 100 µM (inactive)

stdin: What does the data say about its GI50? Entry: CC1CC(c2ccc([N+](=O)[O-])cc2)=Nc2ccccc2S1 (configuration not stated)
stdout: 14.2 µM (inactive)

stdin: // same read-out, input: O=c1oc2c/c(=C\c3ccc([N+](=O)[O-])cc3)c(=O)c3cccc1c3-2
stdout: > 100 µM (inactive)

stdin: // same read-out, input: O=C1c2cc3c(cc2[C@@H]2C(O)[C@H]4O[C@H]4C4CCN1C42)OCO3 (some centres not stated)
stdout: > 37.5 µM (inactive)

stdin: // same read-out, input: CN(NC1OC(CO)C(O)C(O)C1O)c1ccccc1 (configuration not stated)
stdout: > 100 µM (inactive)

stdin: // same read-out, input: COc1ccc(N2C(=O)C(C#N)=C(SC)C(C#N)C2=O)cc1 (configuration not stated)
stdout: > 100 µM (inactive)

stdin: // same read-out, input: CON1C(=O)C2(CCCCC2)C(=O)C12C=CC(C)CC2 (configuration not stated)
stdout: > 100 µM (inactive)

stdin: // same read-out, input: COCCOCCOCCOc1cccc2c1C(=O)c1cccc(OCCOCCOCCOC)c1C2=O
stdout: > 100 µM (inactive)

stdin: // same read-out, input: CCCCN(CCCC)C(=O)C(=O)CC(=O)/C=C/c1ccccc1
stdout: > 100 µM (inactive)

stdin: // same read-out, input: CC(=O)C1(c2ccccc2)CCCN(C)CC1 (configuration not stated)
stdout: > 100 µM (inactive)

stdin: // same read-out, input: Cc1cc(NS(=O)(=O)c2ccc(NO)cc2)no1
stdout: 70.6 µM (inactive)

stdin: // same read-out, input: CCCCn1c(C)c(C(=O)CC)c(C(=O)NCCN2CCN(c3ccccc3Cl)CC2)c1C
stdout: 17.6 µM (inactive)

stdin: // same read-out, input: O=C(O)c1cc2cc(OCc3ccccc3)ccc2[nH]1
stdout: > 100 µM (inactive)

stdin: // same read-out, input: COc1ccc(C)cc1C1CCC(=O)O1 (configuration not stated)
stdout: > 100 µM (inactive)

stdin: // same read-out, input: Cc1c[n+]2c3ccccc3c3ccccc3c2s1.[O-][Cl+3]([O-])([O-])[O-]
stdout: 17.4 µM (inactive)

stdin: // same read-out, input: CC[S+]1C2=C(CC(C)(C)CC2=O)[N-]c2ccccc21 (configuration not stated)
stdout: > 100 µM (inactive)

stdin: // same read-out, input: C=C(C)C(O)C(O)C[C@@H](C)C1CC[C@]23C[C@]12CCC1[C@@]2(C)CCC(OC(C)=O)C(C)(C)C2CC(OC2OC(CO)C(O)C(O)C2O)[C@]13C (some centres not stated)
stdout: 15.2 µM (inactive)

stdin: // same read-out, input: CCOc1ccc2nc(-c3ccc(O)cc3)sc2c1
stdout: > 100 µM (inactive)

stdin: // same read-out, input: Cn1c2c(c3ccccc31)CC(=O)N1CCCC(C1)CC21OCCO1 (configuration not stated)
stdout: > 100 µM (inactive)

stdin: // same read-out, input: CC1=C(C(=O)Nc2ccc([N+](=O)[O-])cc2)C(c2cccc([N+](=O)[O-])c2)C(C(=O)Nc2ccc([N+](=O)[O-])cc2)=C(C)N1
stdout: 24.3 µM (inactive)

stdin: // same read-out, input: CCCCCCCCCCCCCCCC(=O)OCC1OC(OC)C2NP(=O)(N(CCCl)CCCl)OC1C2O (configuration not stated)
stdout: 4.31 µM (inactive)

stdin: // same read-out, input: O=C(/C(=N/Nc1ccccc1)c1ccc([N+](=O)[O-])cc1)c1ccc([N+](=O)[O-])cc1
stdout: > 100 µM (inactive)

stdin: // same read-out, input: COc1cccc(-c2nccc3c(OCc4ccccc4)c(OC)c(OC)cc23)c1
stdout: > 100 µM (inactive)

These entries and their values trace back to ChEMBL document CHEMBL1201862.
